Target: Recombinant mTOR (FRAP1) (Homo sapiens)
Construct: purchased Invitrogen
Sequence (P42345 1360-2549 limits assumed): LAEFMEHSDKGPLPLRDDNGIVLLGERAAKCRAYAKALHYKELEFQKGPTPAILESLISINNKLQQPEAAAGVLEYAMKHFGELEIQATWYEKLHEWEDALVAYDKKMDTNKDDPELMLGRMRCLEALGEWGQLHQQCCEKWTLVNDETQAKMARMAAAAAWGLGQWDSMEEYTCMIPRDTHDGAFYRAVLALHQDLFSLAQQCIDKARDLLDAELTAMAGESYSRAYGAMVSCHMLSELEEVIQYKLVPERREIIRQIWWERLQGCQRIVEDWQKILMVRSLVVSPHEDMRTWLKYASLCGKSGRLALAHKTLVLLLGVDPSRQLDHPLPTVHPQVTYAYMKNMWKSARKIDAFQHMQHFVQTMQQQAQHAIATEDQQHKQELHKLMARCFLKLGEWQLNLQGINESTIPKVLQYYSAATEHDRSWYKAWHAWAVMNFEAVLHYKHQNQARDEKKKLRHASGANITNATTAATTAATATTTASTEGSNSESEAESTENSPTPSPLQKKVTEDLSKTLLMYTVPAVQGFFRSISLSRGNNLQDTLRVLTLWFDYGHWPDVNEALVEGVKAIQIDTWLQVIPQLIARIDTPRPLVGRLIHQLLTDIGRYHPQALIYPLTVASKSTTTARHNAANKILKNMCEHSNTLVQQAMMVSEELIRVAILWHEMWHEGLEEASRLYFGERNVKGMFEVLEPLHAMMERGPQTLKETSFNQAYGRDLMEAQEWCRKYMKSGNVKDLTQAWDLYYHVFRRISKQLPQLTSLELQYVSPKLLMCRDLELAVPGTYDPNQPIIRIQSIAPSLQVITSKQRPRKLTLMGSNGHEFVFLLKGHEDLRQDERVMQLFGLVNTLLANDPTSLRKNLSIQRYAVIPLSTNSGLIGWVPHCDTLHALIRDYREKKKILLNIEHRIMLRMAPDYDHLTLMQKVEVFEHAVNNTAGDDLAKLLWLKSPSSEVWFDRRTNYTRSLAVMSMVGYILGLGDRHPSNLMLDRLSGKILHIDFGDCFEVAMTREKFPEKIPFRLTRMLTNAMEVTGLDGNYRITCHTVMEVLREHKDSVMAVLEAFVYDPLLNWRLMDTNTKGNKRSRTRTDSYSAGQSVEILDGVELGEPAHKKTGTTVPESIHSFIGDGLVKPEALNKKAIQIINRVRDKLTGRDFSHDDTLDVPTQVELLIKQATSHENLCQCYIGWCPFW
Experiment: mTOR in vitro kinase assay (TR-FRET, phosphorylation of GFP-4E-BP1)
Format: biochemical
Settings: 1 uM compound; read-out: mTOR % Inhib@1 uM
Item-by-item account of inhibition at 1 µM

// known answers, use as guide
structure-string	endpoint	observed-result
C[C@@H]1CN(c2nc(Oc3ccc(C(=O)N(C)C)cc3)nc(-c3cnc(N)s3)n2)CCO1	inhibition at 1 µM	> 50%
C[C@H]1COCCN1c1nc(Oc2ccc(C(=O)N(C)C)cc2F)nc(-c2cnc(N)s2)n1	inhibition at 1 µM	> 50%
C[C@@H]1COCCN1c1nc(Oc2ccc(C(=O)N(C)C)cc2)nc(-c2cnc(N)s2)n1	inhibition at 1 µM	< 50%
CN(C)C(=O)c1ccc(Oc2nc(Nc3nccs3)nc(N3CCOCC3)n2)cc1	inhibition at 1 µM	< 50%

Request: Write down the reported inhibition at 1 µM of `C[C@H]1COC[C@H](C)N1c1nc(Oc2ccc(C(=O)N(C)C)cc2)nc(-c2cnc(N)s2)n1` , test system: Recombinant mTOR (FRAP1) (Homo sapiens).
Result: > 50%

Request: Write down the reported inhibition at 1 µM of `CN(C)C(=O)c1ccc(Oc2nc(-c3cnc(N)s3)nc(N3CCO[C@@H]4CCCC[C@H]43)n2)cc1` , test system: Recombinant mTOR (FRAP1) (Homo sapiens).
Result: < 50%

====

Biological target: Recombinant mTOR (FRAP1) (Homo sapiens)
Construct: purchased Invitrogen
Assay: mTOR in vitro kinase assay (TR-FRET, phosphorylation of GFP-4E-BP1)
Format: biochemical
Details: 1 uM compound; read-out: mTOR % Inhib@1 uM
endpoint: inhibition at 1 µM

// known answers, use as guide
structure-string	inhibition at 1 µM
CN(C)C(=O)c1ccc(Oc2nc(-c3cnc(N)s3)nc(N3CCOCC3(C)C)n2)cc1	> 50%
C[C@H]1COCCN1c1nc(Oc2ccc(C(=O)N(C)C)cc2F)nc(-c2ccc3[nH]ccc3c2)n1	> 50%
CN(C)C(=O)c1ccc(Oc2nc(-c3ccc4[nH]ncc4c3)nc(N3CC4CCC(C3)O4)n2)c(F)c1	> 50%

Query compound follows.
Request: Fill blank: measured inhibition at 1 µM of the compound `CN(C)C(=O)Cc1ccc(Oc2nc(-c3ccc(N)nc3)nc(N3CCOCC3)n2)cc1` is ____.
Result: > 50%

====

Target: PI3 Kinase alpha (p110 alpha/p85 alpha) (Homo sapiens, UniProt P42336)
Construct: purchased Invitrogen
Sequence (P42336 whole entry): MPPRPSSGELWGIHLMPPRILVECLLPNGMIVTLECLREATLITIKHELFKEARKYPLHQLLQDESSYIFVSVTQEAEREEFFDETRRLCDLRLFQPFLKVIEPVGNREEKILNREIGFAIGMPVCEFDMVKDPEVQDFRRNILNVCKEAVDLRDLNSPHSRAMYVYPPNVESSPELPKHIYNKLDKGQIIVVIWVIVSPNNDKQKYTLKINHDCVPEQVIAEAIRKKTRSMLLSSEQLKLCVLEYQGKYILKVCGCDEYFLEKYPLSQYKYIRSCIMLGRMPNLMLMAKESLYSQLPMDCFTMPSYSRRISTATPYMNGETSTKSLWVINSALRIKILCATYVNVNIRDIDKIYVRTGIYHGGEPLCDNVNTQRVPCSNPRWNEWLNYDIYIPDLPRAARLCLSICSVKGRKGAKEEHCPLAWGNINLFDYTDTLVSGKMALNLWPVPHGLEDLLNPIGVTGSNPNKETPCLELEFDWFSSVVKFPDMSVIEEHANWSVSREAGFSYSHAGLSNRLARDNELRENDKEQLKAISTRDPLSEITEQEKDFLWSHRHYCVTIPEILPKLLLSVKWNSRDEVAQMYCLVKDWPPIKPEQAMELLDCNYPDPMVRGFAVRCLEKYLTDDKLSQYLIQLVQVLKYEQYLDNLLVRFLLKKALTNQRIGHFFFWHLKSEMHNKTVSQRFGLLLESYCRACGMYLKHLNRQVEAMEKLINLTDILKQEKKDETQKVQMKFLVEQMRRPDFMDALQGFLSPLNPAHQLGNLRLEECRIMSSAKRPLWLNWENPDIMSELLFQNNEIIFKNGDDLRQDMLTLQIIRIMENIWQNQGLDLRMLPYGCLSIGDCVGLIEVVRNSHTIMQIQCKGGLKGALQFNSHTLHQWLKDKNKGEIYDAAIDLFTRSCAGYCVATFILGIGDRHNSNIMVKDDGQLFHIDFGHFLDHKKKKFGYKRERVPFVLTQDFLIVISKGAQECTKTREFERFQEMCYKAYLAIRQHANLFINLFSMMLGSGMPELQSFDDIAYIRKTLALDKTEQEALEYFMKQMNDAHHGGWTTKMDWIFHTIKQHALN
Sequence (P27986 whole entry partner): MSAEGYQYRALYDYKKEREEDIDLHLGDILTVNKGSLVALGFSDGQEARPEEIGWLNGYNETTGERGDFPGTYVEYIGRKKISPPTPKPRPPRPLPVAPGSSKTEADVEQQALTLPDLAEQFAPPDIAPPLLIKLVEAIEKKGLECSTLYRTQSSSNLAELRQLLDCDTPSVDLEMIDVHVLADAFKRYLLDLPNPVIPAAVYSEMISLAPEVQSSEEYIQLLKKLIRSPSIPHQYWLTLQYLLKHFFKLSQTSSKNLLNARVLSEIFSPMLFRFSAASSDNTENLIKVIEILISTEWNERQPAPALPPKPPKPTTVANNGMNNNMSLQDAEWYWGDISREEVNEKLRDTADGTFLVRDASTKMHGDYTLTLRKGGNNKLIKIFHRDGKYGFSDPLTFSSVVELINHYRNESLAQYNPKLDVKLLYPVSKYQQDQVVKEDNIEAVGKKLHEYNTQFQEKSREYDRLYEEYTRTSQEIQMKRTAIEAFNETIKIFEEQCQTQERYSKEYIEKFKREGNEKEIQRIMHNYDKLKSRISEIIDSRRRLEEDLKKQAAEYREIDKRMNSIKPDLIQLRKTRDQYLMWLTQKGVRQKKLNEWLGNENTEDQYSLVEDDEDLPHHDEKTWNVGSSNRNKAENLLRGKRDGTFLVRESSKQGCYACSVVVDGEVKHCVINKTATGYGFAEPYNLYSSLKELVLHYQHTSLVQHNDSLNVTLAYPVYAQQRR
Test: PI3K TR-FRET assay (Transcreener ADP2)
Assay type: biochemical
Conditions: PI3K alpha, 1 μM ATP, 50 μM PIP2
pIC50: −log10 of the molar value.
endpoint: pIC50

// known answers, use as guide
compound	pIC50
C[C@H]1COCCN1c1nc(Oc2ccc(C(=O)N(C)C)cc2)nc(-c2cnc(N)s2)n1 [Compound 10005]	> 6.00
CN(C)C(=O)c1ccc(Oc2nc(-c3cnc(N)s3)nc(N3[C@@H]4CC[C@H]3COC4)n2)cc1 [Compound 10011]	< 6.00
CN(C)C(=O)c1ccc(Oc2nc(-c3ccc(N)nc3)nc(N3CC4CCC(C3)O4)n2)c(F)c1 [Compound 10095]	< 6.00

Query compound follows.
Request: Write down the reported pIC50 of C[C@@H]1CN(c2nc(Oc3ccc(C(=O)N(C)C)cc3)nc(-c3cnc(N)s3)n2)[C@@H](C)CO1 [Compound 10076] , test system: PI3 Kinase alpha (p110 alpha/p85 alpha) (Homo sapiens, UniProt P42336).
Result: < 6.00

====

Target: PI3 Kinase alpha (p110 alpha/p85 alpha) (Homo sapiens, UniProt P42336)
Construct: purchased Invitrogen
Experiment: PI3K TR-FRET assay (Transcreener ADP2)
Format: biochemical
Conditions: 1 uM compound; read-out: PI3K % Inhib@1 uM
Item-by-item account of inhibition at 1 µM

// known answers, use as guide
compound	target-or-test-system	inhibition at 1 µM
C[C@H]1COCCN1c1nc(OC2CCC(C(=O)N(C)C)CC2)nc(-c2ccc3[nH]ccc3c2)n1 (stereo partly shown)	PI3 Kinase alpha (p110 alpha/p85 alpha) (Homo sapiens, UniProt P42336)	< 50%
C[C@H]1OCCN(c2nc(Oc3ccc(C(=O)N(C)C)cc3F)nc(-c3cnc(N)s3)n2)[C@H]1C	PI3 Kinase alpha (p110 alpha/p85 alpha) (Homo sapiens, UniProt P42336)	> 50%
C[C@H]1COCCN1c1nc(Oc2ccc(C(=O)N(C)C)cc2)nc(-c2cnc(N(C)C)s2)n1	PI3 Kinase alpha (p110 alpha/p85 alpha) (Homo sapiens, UniProt P42336)	< 50%
C[C@H]1COC[C@H](C)N1c1nc(Oc2ccc(C(=O)N(C)C)cc2)nc(-c2cnc(N)s2)n1	PI3 Kinase alpha (p110 alpha/p85 alpha) (Homo sapiens, UniProt P42336)	> 50%
C[C@@H]1CN(c2nc(Oc3ccc(C(=O)N(C)C)cc3F)nc(-c3ccc4[nH]ncc4c3)n2)[C@@H](C)CO1	PI3 Kinase alpha (p110 alpha/p85 alpha) (Homo sapiens, UniProt P42336)	< 50%
C[C@H]1COCCN1c1nc(OC2CCC(C(=O)N(C)C)CC2)nc(-c2cccc(CO)c2)n1 (stereo partly shown)	PI3 Kinase alpha (p110 alpha/p85 alpha) (Homo sapiens, UniProt P42336)	> 50%

Request: Write down the reported inhibition at 1 µM of `CN(C)C(=O)c1ccc(Oc2nc(-c3cnc(N)s3)nc(N3CC4CCC(C3)O4)n2)cc1` , test system: PI3 Kinase alpha (p110 alpha/p85 alpha) (Homo sapiens, UniProt P42336).
Result: < 50%

====

Molecular target: PI3 Kinase alpha (p110 alpha/p85 alpha) (Homo sapiens)
Construct: purchased Invitrogen
Experiment: PI3K TR-FRET assay (Transcreener ADP2)
Assay type: biochemical
Conditions: 1 uM compound; read-out: PI3K % Inhib@1 uM
endpoint: inhibition at 1 µM

// known answers, use as guide
compound	target-or-test-system	observed-result
C[C@H]1COCCN1c1nc(O[C@H]2CC[C@H](C(=O)N(C)C)CC2)nc(-c2ccc(CO)cc2)n1 [Compound 10203]	PI3 Kinase alpha (p110 alpha/p85 alpha) (Homo sapiens)	< 50%
C[C@@H]1CN(c2nc(Oc3ccc(C(=O)N(C)C)cc3)nc(-c3cnc(N)s3)n2)C[C@H](C)O1 [Compound 10122]	PI3 Kinase alpha (p110 alpha/p85 alpha) (Homo sapiens)	< 50%
CC[C@H]1COCCN1c1nc(Oc2ccc(C(=O)N(C)C)cc2)nc(-c2cnc(N)s2)n1 [Compound 10081]	PI3 Kinase alpha (p110 alpha/p85 alpha) (Homo sapiens)	> 50%
C[C@H]1CN(c2nc(Oc3ccc(C(=O)N(C)C)cc3F)nc(-c3ccc(N)nc3)n2)[C@@H](C)CO1 [Compound 10097]	PI3 Kinase alpha (p110 alpha/p85 alpha) (Homo sapiens)	> 50%
C[C@H]1COCCN1c1nc(Oc2ccc(C(=O)N(C)C)cc2)nc(-c2cnc(NC(=O)Nc3cccnc3)s2)n1 [Compound 10092]	PI3 Kinase alpha (p110 alpha/p85 alpha) (Homo sapiens)	< 50%

Request: Fill blank: measured inhibition at 1 µM of the compound CN(C)C(=O)[C@H]1CC[C@H](Oc2nc(-c3cnc(N)s3)nc(N3CCO[C@H]4CCC[C@@H]43)n2)CC1 [Compound 10145] is ____.
Result: < 50%

Request: Fill blank: measured inhibition at 1 µM of the compound CN(C)C(=O)c1ccc(Oc2nc(-c3cnc(N)s3)nc(N3CCO[C@@H]4CCC[C@H]43)n2)cc1 [Compound 10132] is ____.
Result: < 50%

====

Item-by-item account of IC50
Molecular target: PI3 Kinase alpha (p110 alpha/p85 alpha) (Homo sapiens)
Assay: PI3K TR-FRET assay (Transcreener ADP2)
Details: PI3K alpha, 1 μM ATP, 50 μM PIP2

compound	target-or-test-system	endpoint	observed-result
C[C@@H]1OCCN(c2nc(Oc3ccc(C(=O)N(C)C)cc3F)nc(-c3cnc(N)s3)n2)[C@H]1C [Compound 10053]	PI3 Kinase alpha (p110 alpha/p85 alpha) (Homo sapiens)	IC50	> 1000 nM
CN(C)C(=O)c1ccc(Oc2nc(-c3cnc(N)s3)nc(N3CCOc4ccccc43)n2)cc1 [Compound 10029]	PI3 Kinase alpha (p110 alpha/p85 alpha) (Homo sapiens)	IC50	> 1000 nM
CN(C)C(=O)c1ccc(Oc2nc(-c3cnc(N)s3)nc(N3CCCOCC3)n2)cc1 [Compound 10192]	PI3 Kinase alpha (p110 alpha/p85 alpha) (Homo sapiens)	IC50	> 1000 nM
CN(C)C(=O)c1ccc(Oc2nc(Nc3nccs3)nc(N3CCOCC3)n2)cc1 [Compound 10191]	PI3 Kinase alpha (p110 alpha/p85 alpha) (Homo sapiens)	IC50	> 1000 nM
CN(C)C(=O)c1ccc(Oc2nc(-c3cnc(N)s3)nc(N3CCO[C@@H]4CCC[C@H]43)n2)cc1 [Compound 10132]	PI3 Kinase alpha (p110 alpha/p85 alpha) (Homo sapiens)	IC50	< 1000 nM
C[C@H]1CN(c2nc(Oc3ccc(C(=O)N(C)C)cc3F)nc(-c3cnc4[nH]ccc4c3)n2)[C@@H](C)CO1 [Compound 10104]	PI3 Kinase alpha (p110 alpha/p85 alpha) (Homo sapiens)	IC50	< 1000 nM
CN(C)C(=O)c1ccc(Oc2nc(-c3cnc(N)s3)nc(N3CC4CCC(C3)O4)n2)cc1 [Compound 10075]	PI3 Kinase alpha (p110 alpha/p85 alpha) (Homo sapiens)	IC50	> 1000 nM
CN(C)C(=O)[C@H]1CC[C@H](Oc2nc(-c3ccc(N)nc3)nc(N3CCOCC3)n2)CC1 [Compound 10049]	PI3 Kinase alpha (p110 alpha/p85 alpha) (Homo sapiens)	IC50	< 1000 nM

Request: Fill blank: measured IC50 of the compound CN(C)C(=O)NC1CCN(c2nc(-c3ccc(N)nc3)nc(N3CCOCC3)n2)CC1 [Compound 10188] is ____.
Result: > 1000 nM

Request: Fill blank: measured IC50 of the compound CN(C)C(=O)c1ccc(Oc2nc(-c3cnc(N)cc3C(F)(F)F)nc(N3CCOCC3)n2)c(F)c1 [Compound 10065] is ____.
Result: < 1000 nM

Request: Fill blank: measured IC50 of the compound C[C@H]1COCCN1c1nc(Oc2ccc(C(=O)N(C)C)cc2F)nc(-c2cnc(N)cc2C(F)(F)F)n1 [Compound 10067] is ____.
Result: < 1000 nM

Request: Fill blank: measured IC50 of the compound CN(C)C(=O)c1ccc(Oc2nc(-c3ccc(N)nc3)nc(N3[C@@H]4CC[C@H]3COC4)n2)cc1 [Compound 10050] is ____.
Result: > 1000 nM

Request: Fill blank: measured IC50 of the compound Nc1ccc(-c2nc(CO)nc(N3CCOCC3)n2)cn1 [Compound 10176] is ____.
Result: < 1000 nM

Request: Fill blank: measured IC50 of the compound C[C@H]1COCCN1c1nc(Oc2ccc(C(=O)N(C)C)cc2F)nc(-c2ccc3[nH]ncc3c2)n1 [Compound 10051] is ____.
Result: > 1000 nM

Request: Fill blank: measured IC50 of the compound C[C@@H]1CO[C@@H](C)CN1c1nc(Oc2ccc(C(=O)N(C)C)cc2F)nc(-c2ccc3[nH]ncc3c2)n1 [Compound 10161] is ____.
Result: > 10000 nM
